Reference source for all entries: ChEMBL document CHEMBL5303711

assay_details: Cytotoxicity activity against human HepG2 cells assessed by CellTiter-Glo luminescent cell viability assay.
Type: toxicity, cell-based
Set-up: assay stage confirmatory assay, source tissue liver
condition_context: HepG2 cells, read-out: IC50 relative
Active and inactive are the calls of the source. The rule behind the calls is not given here.
Permitted responses: active, inactive

q: Each compound tested received a call. Report the one for Cc1noc(C2CN(C3CCCC3)CCCN2C(=O)c2ccccc2)n1 (centres undefined) .
a: active

q: Query: recorded result category for Cc1c(CNCCCN2CCCCC2CO)oc2ccccc12 (centres undefined) in this test
a: active

q: What is the recorded call for this compound in the test? CC(C)[C@]12O[C@H]1[C@@H]1O[C@]13[C@]1(O[C@H]1C[C@H]1C4=C(CC[C@@]13C)C(=O)OC4)[C@@H]2O [TRIPTOLIDE]
a: active

q: Would you mind telling me which call this test gave COc1cc2c(Nc3ccc(NC(=O)c4ccccc4)cc3)ncnc2cc1OCCCN1CCOCC1 ?
a: active

----------
assay_details: Cytotoxicity activity against human HepG2 cells assessed by CellTiter-Glo luminescent cell viability assay.
Type: toxicity, cell-based
Set-up: assay stage confirmatory assay, source tissue liver
condition_context: HepG2 cells, read-out: IC50 relative
Calls of active or inactive are those of the source. How the calls were made is not given here.
Classes to choose from: Yes (active), No (inactive)

{"columns": ["compound", "qualitative_label"],
 "data": [
  ["C=CC(=O)Nc1cccc(Oc2nc(Nc3ccc(N4CCN(C)CC4)cc3OC)ncc2Cl)c1", "Yes"],
  ["O=C(NC[C@H](O)CO)c1ccncc1Nc1ccc(I)cc1F [PIMASERTIB]", "Yes"]
]}

q: Could you check what this test reported for NCC[C@H](N)C(=O)N1CCC2(CCC(=O)N(Cc3ccccc3)C2)CC1 ?
a: Yes

q: So what was the verdict on COc1cc(C(N)=O)ccc1NC(=O)[C@@H]1N[C@@H](CC(C)(C)C)[C@@]2(C(=O)Nc3cc(Cl)ccc32)[C@H]1c1cccc(Cl)c1F in this test?
a: No

q: // param item: CCC(C)NC(=O)N1CC(Oc2ccc(-c3noc(-c4cccnc4)n3)cc2)C1 (centres undefined) ; yields the recorded call
a: Yes

q: Call for entry CCN1CCN(C(=O)C2CCN(c3nn4cc(-c5ccc(C)cc5)nc4s3)CC2)CC1 :
a: Yes

q: Dear all, I need the recorded test outcome for CCN(CC)Cc1ccccc1CNC(=O)N(CC)C[C@H]1COc2ccccc2O1 , thank you.
a: Yes

q: Returns: the outcome recorded for Cc1cc(N2C[C@@H](C)N[C@@H](C)C2)ncc1-c1ccc(-c2nc3c(ccn3C)c(=O)[nH]2)cc1 in this assay.
a: Yes

q: Could you kindly confirm the outcome this assay logged for N#Cc1ccc(NC(=O)NCc2cnc3scc(-c4ccc(Br)cc4)n23)cc1 ?
a: Yes

----------
assay_details: Cytotoxicity activity against human HepG2 cells assessed by CellTiter-Glo luminescent cell viability assay.
Format: toxicity, cell-based
Parameters: assay stage confirmatory assay, source tissue liver
condition_context: HepG2 cells, read-out: IC50 relative
Activity calls are given as the source filed them. How the calls were made is not given here.
// one of class 1 = active, class 0 = inactive, no free text

{"columns": ["compound", "qualitative_label"],
 "data": [
  ["CCN(CC)S(=O)(=O)c1ccc(C(=O)Nc2cc(C)nn2-c2nc(C)cc(=O)[nH]2)cc1", "class 0"]
]}

q: Hey, what did the test say about c1ccc(CN2C[C@H]3CCNC[C@H]32)cc1 ?
a: class 0

q: Please let me know the test result on file for O=C(c1c(F)ccc(NS(=O)(=O)N2CC[C@@H](F)C2)c1F)c1c[nH]c2ncc(-c3cnc(C4CC4)nc3)cc12 [PLIXORAFENIB] .
a: class 1

q: Outcome logged for C#CCOC1CCN(C(=O)c2ccc(F)c(Br)c2)CC1 in this assay:
a: class 1

q: Given COc1ccc2c(c1)CN(C)CC2c1ccc(Cl)c(Cl)c1 (stereo unspecified) , state the outcome it received in this test.
a: class 1

q: Lab log entry: COc1cc(F)cc2sc(NC(=O)c3cc(N4CCOCC4)ccn3)nc12 — outcome as called in the assay?
a: class 0

q: Which result was noted for this compound in the test: Nc1ccccc1NC(=O)CCCCCC(=O)Nc1ccccc1
a: class 1

q: Call for entry CC(=O)c1ccc(-c2ccc(C(=O)Nc3ncc(C)o3)o2)cc1 :
a: class 1

q: Kindly provide the recorded test outcome for the following compound: Oc1cc2c(cc1C(c1ccc(C(F)(F)F)cc1)N1CCOCC1)OCO2 (stereo unspecified)
a: class 0

q: Hi, do you know how O=C(N/N=C/c1ccccc1O)c1ccncc1 [SALINAZID] came out in this test?
a: class 1

q: I would be grateful if you could indicate the recorded call for CCCCCCCCCCCCC/C=C/[C@@H](O)[C@@H](N)CO [SPHINGOSINE] .
a: class 1

q: In this assay, the call recorded for Cc1ccc2c(c1)C1(CCN(CCc3nc(-c4ccccc4)oc3C)CC1)OC(=O)N2 was what?
a: class 1

q: Kindly provide the recorded test outcome for the following compound: CCCOc1ccccc1-n1c(C)cn2c3c(=O)n(C)c(=O)n(C)c3nc12
a: class 1

q: Assay outcome for CCS(=O)(=O)c1ncc(Br)c(C(=O)Nc2ccc(C)cc2)n1 : what was it?
a: class 1

q: I'd appreciate the recorded outcome for CCOc1nc2cccc(C(=O)OC(C)OC(=O)OC3CCCCC3)c2n1Cc1ccc(-c2ccccc2-c2nnn[nH]2)cc1 (stereo unspecified) [CANDESARTAN CILEXETIL] from this test.
a: class 1

q: Fill in: this test's call for CC(=O)N1c2ccc(S(=O)(=O)N3CCOCC3)cc2CC1C(=O)NCCN1CCCCCC1 (stereo unspecified) is ___
a: class 0

q: How was COc1ccc(-c2cc3c4nn(CC(=O)Nc5ccccc5)c(=O)n4ccn3n2)cc1 classified in this test?
a: class 0

q: Please state the recorded outcome for this compound: Cc1nc2c(=O)n(C)c(=O)nc-2n(C)n1
a: class 1

q: Short answer needed: outcome of this test for Cc1ccc(NC(=O)Cc2ccc(-n3cccn3)cc2)nc1 ?
a: class 1

q: Which outcome was entered for the compound CC1(C)N=C(N)N=C(N)N1c1cccc(Cl)c1 in this test?
a: class 1

q: Check the results log: what was the call for O=c1ccc2ccc(OCCCCN3CCN(c4cccc5sccc45)CC3)cc2[nH]1 [BREXPIPRAZOLE] ?
a: class 1

----------
assay_details: Cytotoxicity activity against human HepG2 cells assessed by CellTiter-Glo luminescent cell viability assay.
Assay type: toxicity, cell-based
Design: assay stage confirmatory assay, source tissue liver
condition_context: HepG2 cells, read-out: IC50 relative
Counter-ions that a name gives are not always drawn. Activity calls are given as the source filed them. How the calls were made is not given here.
measured_metric: CC50

{"columns": ["compound", "CC50"],
 "data": [
  ["COc1cc2c(Oc3ccc4[nH]c(C)cc4c3F)ncnc2cc1OCCCN1CCCC1", "2.5 µM (active)"],
  ["CCc1nn(CCCN2CCN(c3cccc(Cl)c3)CC2)c(=O)n1CCOc1ccccc1 [NEFAZODONE HYDROCHLORIDE]", "14.4 µM (active)"],
  ["F[C@H](c1nc(-c2ccc(OCc3cccnc3)cc2)no1)C1CNC1", "8.2 µM (active)"],
  ["COc1ccc(-n2ccc(C(=O)Nc3cc(Cl)c(=O)n(C)c3)n2)cc1", "7.7 µM (active)"],
  ["O=C(Nc1cc(Cl)cc2cccnc12)c1ccoc1", "0.3 µM (active)"],
  ["CC(=O)NC(c1ccccc1)c1cc(Cl)c2cccnc2c1O (centres undefined)", "1.4 µM (active)"]
]}

q: Consider the compound NC(=O)Nc1cc(-c2cccc(F)c2)sc1C(=O)N[C@H]1CCCNC1 . State its measured CC50.
a: 0.9 µM (active)

q: Return CC50 (reported value) for this compound: Cn1c(=O)oc2cc(S(=O)(=O)Nc3cccc4cccnc34)ccc21
a: 16.7 µM (active)

q: Provide measured CC50 value, entry: Cc1nc(-c2ccccc2)oc1C(=O)Nc1ccc(N2CCN(C)CC2)cn1
a: 12.9 µM (active)

q: In one line, give reported CC50 of the entry Cc1cc(C)nc(-n2ncc(Cl)c(Cl)c2=O)n1 .
a: 3.8 µM (active)

----------
assay_details: Cytotoxicity activity against human HepG2 cells assessed by CellTiter-Glo luminescent cell viability assay.
Format: toxicity, cell-based
Design: assay stage confirmatory assay, source tissue liver
condition_context: HepG2 cells, read-out: IC50 relative
Activity calls are given as the source filed them. No rule for the calls is given here.
One label from this list, please: active, inactive

q: Per the assay record, what outcome was assigned to CC(CNC(=O)C1CCN(C)CC1)Cc1cccc2ccccc12 (stereo unspecified) ?
a: active

q: For Cc1cccc2nc(C(=O)Nc3cccc4cccnc34)cn12 , which call appears in the assay record?
a: active

q: Dear colleague, could you share the recorded outcome for COc1c(Nc2ncc(Cl)c(N[C@H]3[C@@H](C(N)=O)[C@@H]4C=C[C@H]3C4)n2)ccc2c1CC[C@@H](N1CCOCC1)CC2 when you have a moment?
a: active

q: // return assay outcome for Cn1c(C#N)ccc1-c1ccc2c(c1)C(C)(C)OC(=S)N2 [TANAPROGET]
a: active

q: // outcome(item) with item = CC(C)N1CCC(NC(=O)CN2CCCN(Cc3ccccc3)c3ccccc32)CC1
a: active

q: For this compound, state the assay outcome: Cc1ccc(NC(=O)NC[C@@H](C(C)C)N2CCN(C)CC2)cc1Cl
a: active

q: Entry Cc1cc(NC(=O)N2CC=C(c3c[nH]c4ncccc34)CC2)no1 : call = ?
a: inactive

q: Given CCc1nccn1[C@H]1CCCN(CCOc2ccc(F)cc2)C1 , state the outcome it received in this test.
a: active
